test system: M. marinum in A. castellanii; assay type: cell-based, Mycobacterium marinum
Output Yes for records whose Intracellular infection assays: A. castellanii / M. marinum is lower than 1, No for records at or above 1.

Given the entry O=C(Nc1nnc(-c2ccc(Cl)s2)o1)c1ccc(Cl)s1 [GSK316438A] , would its reported Intracellular infection assays: A. castellanii / M. marinum be below 1?
No

Decide: Intracellular infection assays: A. castellanii / M. marinum of O=C(OCc1c(F)cccc1Cl)c1ccc(-n2ncc(Cl)c(Cl)c2=O)cc1 [GSK1826825A] strictly below 1?
Yes

Find out if reported Intracellular infection assays: A. castellanii / M. marinum for Cc1ccc(CNC(=O)c2cnn3c2NC(c2ccc(C)cc2)CC3C(F)F)cc1 (stereo not shown) [GSK1180781A] is less than 1
No

Field: below-cutoff. Rule: recorded Intracellular infection assays: A. castellanii / M. marinum strictly less than 1. Subject: Fc1ccc2nc(Nc3nc(-c4ccccn4)cs3)sc2c1 [GSK735816A]
No

# TODO verify Intracellular infection assays: A. castellanii / M. marinum < 1 strictly for this compound: CCc1ccc(C2CC(C(F)(F)F)n3ncc(C(=O)NCc4cccs4)c3N2)cc1 (stereo not shown) [GSK1589671A]
No

Criterion: Intracellular infection assays: A. castellanii / M. marinum strictly below 1. Is it met by Cc1ccc(SCCNC(=O)c2c(-c3ccccc3)noc2C)cc1 [GSK1863309A] ?
No

Record CCc1ccc(C2CC(C(F)(F)F)n3ncc(C(=O)NCc4ccc(OC)cc4)c3N2)cc1 (stereo not shown) [GSK1589673A] : is its Intracellular infection assays: A. castellanii / M. marinum strictly below 1?
No

In the record for c1ccc(CCNc2cc(-c3ccccc3)nc3nncn23)cc1 [GSK1402290A] , is Intracellular infection assays: A. castellanii / M. marinum less than 1?
No

Input O=C(NC1=NCCS1)c1sc2cc(F)ccc2c1Cl [GSK1107112A] ; condition: Intracellular infection assays: A. castellanii / M. marinum strictly below 1. Does it hold?
Yes

Regarding c1ccc(Cc2nnc(Sc3ccnc(N4CCN(c5ccncc5)CC4)n3)n2CCN2CCOCC2)cc1 [GSK547511A] , kindly confirm whether its Intracellular infection assays: A. castellanii / M. marinum is beneath 1.
Yes

Dear colleague, could you confirm whether Intracellular infection assays: A. castellanii / M. marinum of Cc1nn(Cc2ccccc2)c(Cl)c1C(=O)NC1CCCCCC1 [GSK636544A] falls below 1? Thanks.
No

For this compound, is Intracellular infection assays: A. castellanii / M. marinum lower than 1? O=C(C=Cc1ccccc1)N1CCN(Cc2ccc3c(c2)OCO3)CC1
No

Please check: Intracellular infection assays: A. castellanii / M. marinum for Cc1ccc(C2CC(C(F)(F)F)n3ncc(C(=O)NCc4ccc5c(c4)OCO5)c3N2)cc1 (stereo not shown) [GSK937733A] , strictly under 1 or not?
No

Decide: Intracellular infection assays: A. castellanii / M. marinum of O=C(C1CCN(c2nnc(-n3cccc3)s2)CC1)N1CCC(Cc2ccccc2)CC1 [GSK2032710A] strictly below 1?
No

Below 1 on Intracellular infection assays: A. castellanii / M. marinum? Entry O=C(CCC1CCCCC1)Nc1cccc(-c2nnc(-c3ccco3)o2)c1 [GSK937213A]
No

Consider the compound O=C(N[C@@H](Cc1ccccc1)C(=O)Nc1ccccc1N1CCOCC1)c1cccs1 [GSK1729177A] . Is its Intracellular infection assays: A. castellanii / M. marinum strictly less than 1?
Yes

Bench note: check whether CSc1ccc(C(=O)Nc2nc(-c3ccccn3)cs2)cc1 [GSK921295A] shows Intracellular infection assays: A. castellanii / M. marinum below 1
No
